Exercise: state measured pKi for each of the molecules provided.
- Tested target: Tyrosinase (Agaricus bisporus)
- Sequence (O42713 whole entry): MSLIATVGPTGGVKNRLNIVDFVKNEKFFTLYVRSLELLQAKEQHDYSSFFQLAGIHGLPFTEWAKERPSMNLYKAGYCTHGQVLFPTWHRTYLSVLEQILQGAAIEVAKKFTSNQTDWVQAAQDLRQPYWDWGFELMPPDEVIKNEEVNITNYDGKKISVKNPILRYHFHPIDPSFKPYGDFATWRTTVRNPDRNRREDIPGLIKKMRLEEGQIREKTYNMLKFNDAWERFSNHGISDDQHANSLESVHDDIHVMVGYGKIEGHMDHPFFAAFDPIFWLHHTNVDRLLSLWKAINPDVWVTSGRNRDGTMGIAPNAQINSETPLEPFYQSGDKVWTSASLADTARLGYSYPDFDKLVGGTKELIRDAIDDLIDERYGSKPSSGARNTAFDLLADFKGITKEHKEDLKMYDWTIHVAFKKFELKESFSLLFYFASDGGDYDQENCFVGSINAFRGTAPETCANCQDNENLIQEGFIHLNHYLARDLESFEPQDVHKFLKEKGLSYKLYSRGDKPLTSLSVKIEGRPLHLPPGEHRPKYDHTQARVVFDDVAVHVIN
One number for each entry, as −log10 of the molar value.

# Molecule, pKi
records = [
    ("COC(=O)C(Cc1c[nH]c2ccccc12)NC(=O)COc1ccc(C=O)cc1 (configuration not stated)", 4.27),
]

In the following, a different molecule is considered.
Query :: Recorded pKi for "COP(=O)(OC)OCCOc1ccc(C=O)cc1" , please?
Result :: 4.43

---

- Tested target: Tyrosinase (Agaricus bisporus, UniProt O42713)
- Sequence (O42713 whole entry): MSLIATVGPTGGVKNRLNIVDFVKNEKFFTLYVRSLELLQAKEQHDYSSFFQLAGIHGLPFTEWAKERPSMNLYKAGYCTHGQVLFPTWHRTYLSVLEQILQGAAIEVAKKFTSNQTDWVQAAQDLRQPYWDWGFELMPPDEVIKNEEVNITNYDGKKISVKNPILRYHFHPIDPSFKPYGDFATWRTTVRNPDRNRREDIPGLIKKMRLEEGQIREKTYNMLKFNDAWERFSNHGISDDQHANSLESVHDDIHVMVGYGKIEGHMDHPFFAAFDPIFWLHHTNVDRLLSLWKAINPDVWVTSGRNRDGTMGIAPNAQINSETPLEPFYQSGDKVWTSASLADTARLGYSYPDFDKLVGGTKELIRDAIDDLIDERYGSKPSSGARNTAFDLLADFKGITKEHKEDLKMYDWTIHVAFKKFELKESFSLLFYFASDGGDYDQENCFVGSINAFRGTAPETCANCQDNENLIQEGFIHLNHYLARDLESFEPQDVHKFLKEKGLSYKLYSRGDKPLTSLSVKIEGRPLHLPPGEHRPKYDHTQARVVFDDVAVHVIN
Could you please report measured IC50 for the items listed next?
Answers are plain numbers, in µM.

# Compound, Tested target, Measured number
measured = [
    ("O=Cc1ccc(OCCOC(=O)CCC(=O)O)cc1", "Tyrosinase (Agaricus bisporus, UniProt O42713)", 620),
    ("COC(=O)C(Cc1c[nH]c2ccccc12)NC(=O)COc1ccc(C=O)cc1 (centres undefined)", "Tyrosinase (Agaricus bisporus, UniProt O42713)", 110),
    ("CCOP(=O)(OCC)OCCOc1ccc(C=O)cc1", "Tyrosinase (Agaricus bisporus, UniProt O42713)", 550),
    ("O=Cc1ccc(OCC(O)CO)cc1 (centres undefined)", "Tyrosinase (Agaricus bisporus, UniProt O42713)", 1260),
    ("O=Cc1ccc(OCCOP(=O)(O)O)cc1", "Tyrosinase (Agaricus bisporus, UniProt O42713)", 820),
]

Return reported IC50 values for all items listed beneath this line.
1. COCCCCOc1ccc(C=O)cc1
2. COCCOc1ccc(C=O)cc1
3. COP(=O)(OC)OCCOc1ccc(C=O)cc1

Result ::
620
660
59

For each of the items listed, what is its IC50?
1. CCC(C)C(NC(=O)COc1ccc(C=O)cc1)C(=O)OC (centres undefined)
2. O=Cc1ccc(OCCO)cc1
3. CCCCOCCOc1ccc(C=O)cc1
4. COC(=O)C(CCSC)NC(=O)COc1ccc(C=O)cc1 (centres undefined)
5. COC(=O)C1CCCN1C(=O)COc1ccc(C=O)cc1 (centres undefined)
6. O=Cc1ccc(OCOC(CO)CO)cc1

Result ::
460
2550
3260
400
760
270
